System: MES-SA
Assay Explanation: relative viability vs DMSO control (72 h) (fraction); higher = more viable cells
Reported Conditions: 0.1235 µM
Measure: relative viability

- Entry Smiles: "C[C@@H]1COC(Nc2ccc3ncnc(Nc4ccc(OCc5nccs5)c(Cl)c4)c3c2)=N1"
  Target: "MES-SA"
  Assay Value: 0.945
- Entry Smiles: "COc1cc2c(Oc3ccc4[nH]c(C)cc4c3F)ccnc2cc1OCC1(N)CC1"
  Target: "MES-SA"
  Assay Value: 0.924
- Entry Smiles: "Cc1cn(-c2cc(NC(=O)c3ccc(C)c(Nc4nccc(-c5cnccn5)n4)c3)cc(C(F)(F)F)c2)cn1"
  Target: "MES-SA"
  Assay Value: 0.981
- Entry Smiles: "CC[C@@H]1C(=O)N(C)c2cnc(Nc3ccc(C(=O)N[C@H]4CC[C@H](N5CCN(CC6CC6)CC5)CC4)cc3OC)nc2N1C(C)C"
  Target: "MES-SA"
  Assay Value: 0.173
- Entry Smiles: "CN(C)C[C@@H]1CCn2cc(c3ccccc32)C2=C(C(=O)NC2=O)c2cn(c3ccccc23)CCO1"
  Target: "MES-SA"
  Assay Value: 0.898
- Entry Smiles: "CN1CCN(CCOc2cc(OC3CCOCC3)c3c(Nc4c(Cl)ccc5c4OCO5)ncnc3c2)CC1"
  Target: "MES-SA"
  Assay Value: 0.943
- Entry Smiles: "FC(F)(F)c1ccc(CNc2ccc(Cc3c[nH]c4ncc(Cl)cc34)cn2)cn1"
  Target: "MES-SA"
  Assay Value: 0.923
- Entry Smiles: "COc1cc(Nc2c(C#N)cnc3cc(OCCCN4CCN(C)CC4)c(OC)cc23)c(Cl)cc1Cl"
  Target: "MES-SA"
  Assay Value: 0.994
